Measured inhibition at 30 mg/kg, listed per entry.
# tested_system: fusion protein Tel/PDGF-R (PDGF-Rβ kinase domain) in HEK cells (Homo sapiens)
# Construct: the transmembrane and intracellular part of the PDGF-Rβ receptor; N-terminal part of the Tel transcription factor (ETV6); expressed in transfected cells; host or cells: HEK cells (transient transfection); the other entry of the earlier key: ETV6 (P41212, Transcription factor ETV6)
# Sequence (P09619 with tags, fused parts or gaps): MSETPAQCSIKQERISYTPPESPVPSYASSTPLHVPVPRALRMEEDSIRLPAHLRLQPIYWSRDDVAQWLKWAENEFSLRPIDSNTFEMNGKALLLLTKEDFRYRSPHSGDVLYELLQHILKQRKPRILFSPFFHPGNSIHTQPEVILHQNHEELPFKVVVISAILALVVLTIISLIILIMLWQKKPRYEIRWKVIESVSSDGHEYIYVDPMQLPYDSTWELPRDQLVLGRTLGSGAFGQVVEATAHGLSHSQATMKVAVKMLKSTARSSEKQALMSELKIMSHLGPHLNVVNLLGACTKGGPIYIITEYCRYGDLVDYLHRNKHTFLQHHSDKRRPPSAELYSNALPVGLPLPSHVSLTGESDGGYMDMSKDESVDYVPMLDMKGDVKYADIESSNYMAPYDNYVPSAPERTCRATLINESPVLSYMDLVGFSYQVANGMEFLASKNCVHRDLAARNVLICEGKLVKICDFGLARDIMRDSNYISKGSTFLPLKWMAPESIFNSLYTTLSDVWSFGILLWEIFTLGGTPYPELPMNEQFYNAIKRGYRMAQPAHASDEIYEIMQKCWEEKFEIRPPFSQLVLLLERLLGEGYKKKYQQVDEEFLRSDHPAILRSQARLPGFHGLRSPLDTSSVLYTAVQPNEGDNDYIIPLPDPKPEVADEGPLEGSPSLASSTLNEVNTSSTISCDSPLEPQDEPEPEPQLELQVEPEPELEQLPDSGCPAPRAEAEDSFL
# assay_overview: Ex vivo activity: plasma of orally treated mice tested on PDGF-R autophosphorylation in HEK Tel/PDGF-R cells (ELISA)
# Parameters: species or system female Balb/c mice
# recorded_conditions: HEK293, mouse, po, 30 mg/kg po, plasma collected at 4 h; read-out: % inhibition of autophosphorylation of PDGFR tyrosine kinase in HEK cells
Reply numerically in %, unit not repeated.

>  <compound>
CCn1c(N)c(C(=O)NC)c(=O)c2ccc(-c3ccc(CC(=O)NC[C@H]4CCCN4CC(F)F)cn3)nc21

>  <inhibition at 30 mg/kg / %>
58

$$$$
>  <compound>
CCN1C[C@H](F)C[C@H]1CNC(=O)Cc1ccc(-c2ccc3c(=O)c(C(=O)NC)c(N)n(CC)c3n2)cc1

>  <inhibition at 30 mg/kg / %>
20

$$$$

Task item: Requested field: inhibition at 30 mg/kg. Item: "CCN1CC(F)(F)C[C@H]1CNC(=O)Cc1ccc(-c2ccc3c(=O)c(C(=O)NC)c(N)n(CC)c3n2)cc1"
Reply: 74

Task item: Try this compound too: "CCn1c(N)c(C(=O)NC)c(=O)c2ccc(-c3ccc(CC(=O)NC[C@H]4CCCN4CC(F)F)cc3)nc21"
Reply: 42

Task item: Try this compound too: CCn1c(N)c(C(=O)NC)c(=O)c2ccc(-c3ccc(CC(=O)NCC4COCCN4C4CC4)cc3)nc21 (stereo not drawn)
Reply: 75

Task item: Try this compound too: "CCn1c(N)c(C(=O)NC)c(=O)c2ccc(-c3ccc(CC(=O)NCCN4CCOCC4)cc3)nc21"
Reply: 17
